Give measured IC50 for each item. Keep answers brief.
Quick note: give the figure in µM, leave out the unit.

Prompt: Specify IC50 for O=C(Cc1ccc(Br)cc1)Nc1n[nH]c2c1CCC2 , system CDK2 (UniProt P24941).
Response: 1.1

Prompt: Specify IC50 for O=C(Nc1n[nH]c2c1CCC2)c1cccc(F)c1 , system CDK2 (UniProt P24941).
Response: 5

Prompt: Specify IC50 for O=C(Cc1cccs1)Nc1n[nH]c2c1CCC2 , system CDK2 (UniProt P24941).
Response: 4

Prompt: Specify IC50 for O=C(Cc1ccc(-c2cccc(F)c2)cc1)Nc1n[nH]c2c1CCC2 , system CDK2 (UniProt P24941).
Response: 7

Prompt: Specify IC50 for COc1ccc(C(=O)Nc2n[nH]c3c2CCC3)cc1 , system CDK2 (UniProt P24941).
Response: 6

Prompt: Specify IC50 for CSc1ccc(CC(=O)Nc2n[nH]c3c2CCC3)cc1 , system CDK2 (UniProt P24941).
Response: 1.5

Prompt: Specify IC50 for CC(=O)c1cccc(-c2ccc(CC(=O)Nc3n[nH]c4c3CCC4)cc2)c1 , system CDK2 (UniProt P24941).
Response: 4.3

Prompt: Specify IC50 for CC(=O)c1ccc(-c2ccc(CC(=O)Nc3n[nH]c4c3CCC4)cc2)cc1 , system CDK2 (UniProt P24941).
Response: 6.5

Prompt: Specify IC50 for O=C(Cc1cccc(-c2ccccc2)c1)Nc1n[nH]c2c1CCC2 , system CDK2 (UniProt P24941).
Response: 8

* * *

Give measured pIC50 for each item. Keep answers brief.
pIC50: −log10 of the molar value.

Prompt: Specify pIC50 for COc1ccc(-c2ccc(CC(=O)Nc3n[nH]c4c3CCC4)cc2)cc1 , system CDK2 (UniProt P24941).
Response: > 5.00

Prompt: Specify pIC50 for COc1ccccc1-c1ccc(CC(=O)Nc2n[nH]c3c2CCC3)cc1 , system CDK2 (UniProt P24941).
Response: > 5.00

Prompt: Specify pIC50 for COc1cccc(-c2ccc(CC(=O)Nc3n[nH]c4c3CCC4)cc2)c1 , system CDK2 (UniProt P24941).
Response: > 5.00
